assay: Oxidative metabolic stability in human liver microsomes at 1 uM after 30 mins in presence of 1 mM NADPH; format: ADME, Microsome; conditions: liver microsomes, read-out: Stability
readoutName: remaining at 0.5 h, 1 µM (%)

[[record]]
compound = "O=S(=O)(c1ccc(C(F)(F)F)cc1)N1c2cccnc2-c2n[nH]cc2C1C1CC1 (racemic)"
unittext = "%"
recordednumber = 44

[[record]]
compound = "CC1c2c[nH]nc2-c2cc(F)ccc2N1S(=O)(=O)c1ccc(Cl)cc1 (racemic)"
unittext = "%"
recordednumber = 13

[[record]]
compound = "O=S(=O)(c1ccc(F)cc1)N1c2ccccc2-c2n[nH]cc2C1C1CC1 (racemic)"
unittext = "%"
recordednumber = 8

[[record]]
compound = "O=S(=O)(c1ccc(Cl)s1)N1c2cc(F)c(F)cc2-c2n[nH]cc2C1C1CC1 (racemic)"
unittext = "%"
recordednumber = 4


###

test: Oxidative metabolic stability in human liver microsomes at 1 uM after 30 mins in presence of 1 mM NADPH; format: ADME, Microsome; details: liver microsomes, read-out: Stability
# key: entry, value: remaining at 0.5 h, 1 µM
readoutName: remaining at 0.5 h, 1 µM (%)

[[record]]
compound = "O=S(=O)(c1ccc(C(F)(F)F)cc1)N1c2ccccc2-c2n[nH]cc2C1C1CC1 (racemic)"
recordednumber = 45

[[record]]
compound = "O=S(=O)(c1ncc(Cl)s1)N1c2cc(F)c(F)cc2-c2n[nH]cc2C1C1CC1 (single isomer, unassigned; enantiomer 2)"
recordednumber = 23

[[record]]
compound = "CC1c2c[nH]nc2-c2ccc(F)cc2N1S(=O)(=O)c1ccc(Cl)cc1 (racemic)"
recordednumber = 6

